System: PEL cell line
Assay: PEL cell line viability assay of C8-modified analogs
Assay type: cell-based
Form field: IC50 (one value per entry).

molecule	target	units.label	IC50
CCSc1ncnc2c1nc(Cl)n2[C@@H]1O[C@H](CO)[C@@H](O)[C@H]1O [C1 group at C8 position, 8-chloro, 6-thioethyl purine riboside]	PEL cell line	µM	1.41
CCSc1ncnc2c1nc(N=[N+]=[N-])n2C1OC(CO)C(O)C1O (stereo not drawn) [N3 group at C8 position]	PEL cell line	µM	1.13
CCSc1ncnc2c1nc(Br)n2[C@@H]1O[C@H](CO)[C@@H](O)[C@H]1O [Br group at C8 position, 8-bromo, 6-thioehtyl purine riboside]	PEL cell line	µM	8.13

---

Tested on: IBL-1 (EBV+ DLBCL)
Assay: cells
Format: cell-based
Details: 48 hours, CellTiter-Glo; read-out: LC50 IBL-1 (DLBCL)
property: CC50 (µM)

sample.smiles	value
Nc1nc(F)nc2c1ncn2[C@@H]1O[C@H](CO)[C@@H](O)[C@@H]1O	28.9

---

System: U266 (MM)
Test: cells
Assay type: cell-based
Details: 48 hours, CellTiter-Glo; read-out: LC50 U266 (MM)
property: CC50 (µM)

molecule	property	value
Nc1nc(F)nc2c1ncn2[C@@H]1O[C@H](CO)[C@@H](O)[C@@H]1O [Fludarabine]	CC50	90.7

---

System: BC3 (PEL)
Experiment: cells
Assay type: cell-based
Settings: 48 hours, CellTiter-Glo; read-out: LC50 BC3 (PEL)
property: CC50

sample.smiles	target	value
Nc1nc(F)nc2c1ncn2[C@@H]1O[C@H](CO)[C@@H](O)[C@@H]1O	BC3 (PEL)	> 100 µM
